Known log10 EC50 of a selection of compounds
Molecular target: human TLR7 (Homo sapiens (Human), UniProt Q9NYK1)
Sequence (Q9NYK1 27-1049): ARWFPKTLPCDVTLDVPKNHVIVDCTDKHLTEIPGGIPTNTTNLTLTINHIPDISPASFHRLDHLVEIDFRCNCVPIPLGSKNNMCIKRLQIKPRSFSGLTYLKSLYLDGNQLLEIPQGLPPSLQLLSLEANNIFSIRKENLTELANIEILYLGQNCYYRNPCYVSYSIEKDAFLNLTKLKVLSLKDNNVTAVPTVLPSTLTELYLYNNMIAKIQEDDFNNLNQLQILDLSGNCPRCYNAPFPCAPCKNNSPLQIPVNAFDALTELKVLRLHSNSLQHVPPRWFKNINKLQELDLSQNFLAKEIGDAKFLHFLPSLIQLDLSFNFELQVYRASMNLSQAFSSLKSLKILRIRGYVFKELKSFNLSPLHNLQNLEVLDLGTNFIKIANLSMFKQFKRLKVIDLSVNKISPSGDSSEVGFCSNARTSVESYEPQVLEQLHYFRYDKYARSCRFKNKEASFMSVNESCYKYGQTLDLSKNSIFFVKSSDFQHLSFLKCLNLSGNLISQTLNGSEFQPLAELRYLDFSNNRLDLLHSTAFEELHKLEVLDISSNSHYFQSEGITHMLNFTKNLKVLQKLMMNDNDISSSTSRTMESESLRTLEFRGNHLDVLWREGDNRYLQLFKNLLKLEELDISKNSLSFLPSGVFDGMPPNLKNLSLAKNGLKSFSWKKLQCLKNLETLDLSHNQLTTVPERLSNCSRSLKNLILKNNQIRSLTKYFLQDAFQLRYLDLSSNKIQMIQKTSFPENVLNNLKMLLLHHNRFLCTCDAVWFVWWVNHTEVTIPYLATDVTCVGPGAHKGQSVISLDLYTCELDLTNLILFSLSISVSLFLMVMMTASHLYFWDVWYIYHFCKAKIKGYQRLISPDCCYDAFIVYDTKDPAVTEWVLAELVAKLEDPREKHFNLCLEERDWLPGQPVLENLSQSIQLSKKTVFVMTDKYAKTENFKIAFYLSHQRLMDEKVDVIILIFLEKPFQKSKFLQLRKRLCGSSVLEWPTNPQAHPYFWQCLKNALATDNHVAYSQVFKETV
Assay: HEK-Blue TLR7 reporter assay for TLR7 agonist activity
Conditions: HEK-Blue TLR7 cells, SEAP reporter, 18 h treatment; read-out: TLR7 Agonism (EC50)
// stored as log10 of EC50 expressed in µM

CCCCOc1nc(N)c2nc(O)n(Cc3cnc(CNCCOC)cn3)c2n1
-0.51
CCCCOc1nc(N)c2nc(O)n(Cc3ccccc3)c2n1 [Compound B, reference compound]
-0.33
CCCCOc1nc(N)c2nc(O)n(Cc3cnc(CNC4CC4)cn3)c2n1
-0.85
CCCCOc1nc(N)c2nc(O)n(Cc3ccc(CNCc4ccc(N)cc4)cn3)c2n1
-1.39

# input Return value of log10 EC50 for input CCCCOc1nc(N)c2nc(O)n(Cc3cnc(CNCc4ccccc4)cn3)c2n1 , no commentary.
# output -0.74

# input Return value of log10 EC50 for input CCCCOc1nc(N)c2nc(O)n(Cc3cnc(CNCC4COC4)cn3)c2n1 , no commentary.
# output 1.05

# input Return value of log10 EC50 for input CCCCOc1nc(N)c2nc(O)n(Cc3ccc(CNCCOC)cn3)c2n1 , no commentary.
# output -1.55

# input Return value of log10 EC50 for input CCCCOc1nc(N)c2nc(O)n(Cc3ccc(CNCCCOCCOCCOCCCNC(=O)OC(C)(C)C)cn3)c2n1 , no commentary.
# output -1.33

----------
Molecular target: UniProt Q9NYK1
Assay: HEK-Blue TLR7 reporter assay for TLR7 agonist activity
Settings: HEK-Blue TLR7 cells, SEAP reporter, 18 h treatment; read-out: TLR7 Agonism (EC50)
Binarize EC50 at 20 nM; below is Yes, at or above is No.

Sample answers from the record:
CCCCOc1nc(N)c2nc(O)n(Cc3cnc(CNC(C)C)cn3)c2n1 [Ia-06]
No
CCCCOc1nc(N)c2nc(O)n(Cc3cnc(CNC4CCC4)cn3)c2n1 [Ia-08]
No
CCCCOc1nc(N)c2nc(O)n(Cc3ccc(CNC4CC4)cn3)c2n1 [Ib-03]
Yes
CCCCNCc1ccc(Cn2c(O)nc3c(N)nc(OCCCC)nc32)cn1 [Ic-01]
Yes

# input Could you please tell me whether EC50 recorded for CCCCOc1nc(N)c2nc(O)n(Cc3ccc(CNC4CCC4)cn3)c2n1 [Ib-04] is less than 20 nM?
# output Yes

# input Could you please tell me whether EC50 recorded for CCCCOc1nc(N)c2nc(O)n(Cc3ccc(CNCCOC)nc3)c2n1 [Ic-02] is less than 20 nM?
# output Yes

# input Could you please tell me whether EC50 recorded for CCCCOc1nc(N)c2nc(O)n(Cc3ccc(CNCCCOCCOCCOCCCNC(=O)OC(C)(C)C)nc3)c2n1 [Ic-08] is less than 20 nM?
# output No

# input Could you please tell me whether EC50 recorded for CCCCOc1nc(N)c2nc(O)n(Cc3cnc(CO)cn3)c2n1 [Compound 6] is less than 20 nM?
# output No

# input Could you please tell me whether EC50 recorded for CCCCNCc1cnc(Cn2c(O)nc3c(N)nc(OCCCC)nc32)cn1 [Ia-09] is less than 20 nM?
# output No

----------
Biological target: UniProtKB Q9NYK1
Assay: HEK-Blue TLR7 reporter assay for TLR7 agonist activity
Details: HEK-Blue TLR7 cells, SEAP reporter, 18 h treatment; read-out: TLR7 Agonism (EC50)
Known pEC50 of a selection of compounds
Remember, pEC50 is on a log scale: it is -log10 of the molar concentration.

CCCCOc1nc(N)c2nc(O)n(Cc3ccc(CNCCCN)cn3)c2n1
7.21
CCCCOc1nc(N)c2nc(O)n(Cc3ccc(CNCc4ccc(N)cc4)nc3)c2n1
7.96
CCCCOc1nc(N)c2nc(O)n(Cc3ccc(CNCCC)nc3)c2n1
8.21
CCCCOc1nc(N)c2nc(O)n(Cc3ccc(CNC4CC4)nc3)c2n1
8.28
CCCCOc1nc(N)c2nc(O)n(Cc3ccc(CNCCCN)nc3)c2n1
7.85

# input Return value of pEC50 for input CCCCOc1nc(N)c2nc(O)n(Cc3cnc(CNCc4ccncc4)cn3)c2n1 , no commentary.
# output 6.48

# input Return value of pEC50 for input CCCCNCc1ccc(Cn2c(O)nc3c(N)nc(OCCCC)nc32)nc1 , no commentary.
# output 7.82

# input Return value of pEC50 for input CCCCOc1nc(N)c2nc(O)n(Cc3cnc(CNC)cn3)c2n1 , no commentary.
# output 6.54

# input Return value of pEC50 for input CCCCOc1nc(N)c2nc(O)n(Cc3cnc(CNC4COC4)cn3)c2n1 , no commentary.
# output 6.31
